Assay: Clinical test in humans, three 30-min i.v. infusions 8 hours apart, plasma PK
Type: in vivo
Conditions: human, in vivo, iv, 50 ug/kg, three 30-min i.v. infusions 8 h apart, 50 μg/kg each, mean, read-out: AUC0-t1
Ends that are not written are not given here.
PROPERTY_LABEL: AUC (ng·h/mL)
State the answer as a number, implicitly in ng·h/mL.

So, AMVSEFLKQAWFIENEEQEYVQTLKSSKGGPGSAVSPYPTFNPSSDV-NH2 [Peptide 1] ? Its AUC was 422

###

Assay: Clinical test in humans, three 30-min i.v. infusions 8 hours apart, plasma PK
Type: in vivo
Details: human, in vivo, iv, 200 ug/kg, three 30-min i.v. infusions 8 h apart, 200 μg/kg each, median, read-out: Global tmax
Ends that are not written are not given here.
PROPERTY_LABEL: Tmax (h)
Give your result in h as a bare value.

Reported Tmax ( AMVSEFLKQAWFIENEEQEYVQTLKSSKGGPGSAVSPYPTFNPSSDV-NH2 [Peptide 1] ) = 4.5
